ASSAY_TARGET: Angiotensin II receptor (AT-1) type-1 (Rattus norvegicus, UniProt P29089+P25095)
EXPERIMENT_DESCRIPTION: Concentration required for 50% inhibition of binding against Angiotensin II receptor, type 1 in rat adrenal cortex
Assay type: tissue-based
// reported IC50 for each item listed
Record the value in nM, omitting the unit from your answer.

{"MOLECULE": "Cc1cc(=O)n(CC(=O)N(C)C)nc1-c1ccc2nc(C3CC3)n(Cc3ccc(-c4ccccc4-c4nn[n-]n4)cc3)c2c1.[K+]", "ENDPOINT": "IC50", "RECORDED_VALUE": 3.6}
{"MOLECULE": "COC(=O)c1ccccc1CN1N=C(c2ccc3nc(C4CC4)n(Cc4ccc(-c5ccccc5-c5nn[nH]n5)cc4)c3c2)C(C)CC1=O (stereo not given)", "ENDPOINT": "IC50", "RECORDED_VALUE": 6.5}
{"MOLECULE": "Cc1cc(O)nnc1-c1ccc2nc(C3CC3)n(Cc3ccc(-c4ccccc4-c4nn[nH]n4)cc3)c2c1", "ENDPOINT": "IC50", "RECORDED_VALUE": 1.8}
{"MOLECULE": "CN(C)C(=O)CN1N=C(c2ccc3nc(C4CC4)n(Cc4ccc(-c5ccccc5-c5nn[n-]n5)cc4)c3c2)CCC1=O.[K+]", "ENDPOINT": "IC50", "RECORDED_VALUE": 3.6}

Fill in: IC50 of CCCCc1nc2ccc(C3=NN(CC(=O)N(C)C)C(=O)CC3C)cc2n1Cc1ccc(-c2ccccc2-c2nn[n-]n2)cc1.[K+] (stereo not given) is ___ 2.8

###

ASSAY_TARGET: Angiotensin II receptor (AT-1) type-1 (Rattus norvegicus, UniProt P29089+P25095)
EXPERIMENT_DESCRIPTION: In vivo percent inhibition of Angiotensin II receptor, type 1 induced increase in diastolic blood pressure in pithed rat at 3 mg/kg i.d.
Format: functional, organism-based, Artery
Design: dose 3 mg/kg, route intraduodenal
// reported Inhibition for each item listed
Record the value in %, omitting the unit from your answer.

Consider the worked cases shown below.
{"MOLECULE": "CC1CC(=O)N(CC(=O)N(C)C)N=C1c1ccc2nc(C3CC3)n(Cc3ccc(-c4ccccc4-c4nn[n-]n4)cc3)c2c1.[K+] (stereo not given)", "RECORDED_VALUE": 56}
{"MOLECULE": "CC1CC(=O)NN=C1c1ccc2nc(C3CC3)n(Cc3ccc(-c4ccccc4-c4nn[nH]n4)cc3)c2c1 (stereo not given)", "RECORDED_VALUE": 80}
{"MOLECULE": "COC(=O)CN1N=C(c2ccc3nc(C4CC4)n(Cc4ccc(-c5ccccc5-c5nn[nH]n5)cc4)c3c2)C(C)CC1=O (stereo not given)", "RECORDED_VALUE": 57}
{"MOLECULE": "CC1(C)CC(=O)NN=C1c1ccc2nc(C3CC3)n(Cc3ccc(-c4ccccc4-c4nn[n-]n4)cc3)c2c1.[K+]", "RECORDED_VALUE": 80}

Fill in: Inhibition of Cc1cc(O)nnc1-c1ccc2nc(C3CC3)n(Cc3ccc(-c4ccccc4-c4nn[nH]n4)cc3)c2c1 is ___ 40

###

// reported pIC50 for each item listed
ASSAY_TARGET: Type-1 angiotensin II receptor (Oryctolagus cuniculus, UniProt P34976)
Sequence (P34976 whole entry): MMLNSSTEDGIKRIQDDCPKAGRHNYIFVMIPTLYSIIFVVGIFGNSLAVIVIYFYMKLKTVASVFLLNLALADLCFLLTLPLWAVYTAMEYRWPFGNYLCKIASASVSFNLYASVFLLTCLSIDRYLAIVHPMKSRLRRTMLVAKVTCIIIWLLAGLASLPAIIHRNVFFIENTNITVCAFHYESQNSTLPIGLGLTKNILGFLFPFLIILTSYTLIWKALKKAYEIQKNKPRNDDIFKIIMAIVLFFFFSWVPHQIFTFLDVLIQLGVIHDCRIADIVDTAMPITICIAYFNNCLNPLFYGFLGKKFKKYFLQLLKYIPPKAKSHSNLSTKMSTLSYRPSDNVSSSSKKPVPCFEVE
EXPERIMENT_DESCRIPTION: Inhibitory activity against Angiotensin II receptor, type 1 induced contractions in isolated rabbit aortic rings
// scale note: pIC50 = -log10(conc_M); give the bare number

{"MOL": "CCCc1nc2ccc(C3=NN(CC(=O)N(C)C)C(=O)CC3)cc2n1Cc1ccc(-c2ccccc2-c2nn[n-]n2)cc1.[K+]", "RECORDED_VALUE": 8.70}

Fill in: pIC50 of Cc1cc(O)nnc1-c1ccc2nc(C3CC3)n(Cc3ccc(-c4ccccc4-c4nn[nH]n4)cc3)c2c1 is ___ 8.52

Fill in: pIC50 of CC1(C)CC(=O)NN=C1c1ccc2nc(C3CC3)n(Cc3ccc(-c4ccccc4-c4nn[n-]n4)cc3)c2c1.[K+] is ___ 8.40

Fill in: pIC50 of CN(C)C(=O)CN1N=C(c2ccc3nc(C4CC4)n(Cc4ccc(-c5ccccc5-c5nn[n-]n5)cc4)c3c2)C(C)(C)CC1=O.[K+] is ___ 8.70

Fill in: pIC50 of CCc1nc2ccc(C3=NN(CC(=O)N(C)C)C(=O)CC3)cc2n1Cc1ccc(-c2ccccc2-c2nn[n-]n2)cc1.[K+] is ___ 8.52

###

ASSAY_TARGET: Type-1 angiotensin II receptor (Oryctolagus cuniculus)
EXPERIMENT_DESCRIPTION: Inhibitory activity against Angiotensin II receptor, type 1 induced contractions in isolated rabbit aortic rings
// reported pIC50 for each item listed
// scale note: pIC50 = -log10(conc_M); give the bare number

{"COMPOUND": "CN(C)C(=O)CN1N=C(c2ccc3nc(C4CC4)n(Cc4ccc(-c5ccccc5-c5nn[n-]n5)cc4)c3c2)CCC1=O.[K+]", "ASSAY_TARGET": "Type-1 angiotensin II receptor (Oryctolagus cuniculus)", "pIC50": 8.70}
{"COMPOUND": "CC1CC(=O)N(CC(=O)N(C)C)N=C1c1ccc2nc(C3CC3)n(Cc3ccc(-c4ccccc4-c4nn[n-]n4)cc3)c2c1.[K+] (centres undefined)", "ASSAY_TARGET": "Type-1 angiotensin II receptor (Oryctolagus cuniculus)", "pIC50": 8.70}
{"COMPOUND": "COC(=O)CN1N=C(c2ccc3nc(C4CC4)n(Cc4ccc(-c5ccccc5-c5nn[nH]n5)cc4)c3c2)C(C)CC1=O (centres undefined)", "ASSAY_TARGET": "Type-1 angiotensin II receptor (Oryctolagus cuniculus)", "pIC50": 8.40}

Fill in: pIC50 of CC1CC(=O)NN=C1c1ccc2nc(C3CC3)n(Cc3ccc(-c4ccccc4-c4nn[nH]n4)cc3)c2c1 (centres undefined) is ___ 8.70

###

ASSAY_TARGET: Angiotensin II receptor (AT-1) type-1 (Rattus norvegicus, UniProt P29089+P25095)
EXPERIMENT_DESCRIPTION: Concentration required for 50% inhibition of binding against Angiotensin II receptor, type 1 in rat adrenal cortex
Type: tissue-based
// reported IC50 for each item listed
Record the value in nM, omitting the unit from your answer.

Consider the worked cases shown below.
{"COMPOUND": "CCCCc1nc2ccc(C3=NNC(=O)CC3C)cc2n1Cc1ccc(-c2ccccc2-c2nn[nH]n2)cc1 (stereo not given)", "IC50 (nM)": 6.3}
{"COMPOUND": "CN(C)C(=O)CN1N=C(c2ccc3nc(C4CC4)n(Cc4ccc(-c5ccccc5-c5nn[n-]n5)cc4)c3c2)C(C)(C)CC1=O.[K+]", "IC50 (nM)": 4.7}
{"COMPOUND": "CCc1nc2ccc(C3=NN(CC(=O)N(C)C)C(=O)CC3)cc2n1Cc1ccc(-c2ccccc2-c2nn[n-]n2)cc1.[K+]", "IC50 (nM)": 1.6}
{"COMPOUND": "CC1CC(=O)N(CC(=O)N(C)C)N=C1c1ccc2nc(C3CC3)n(Cc3ccc(-c4ccccc4-c4nn[n-]n4)cc3)c2c1.[K+] (stereo not given)", "IC50 (nM)": 2.9}
{"COMPOUND": "CC1(C)CC(=O)NN=C1c1ccc2nc(C3CC3)n(Cc3ccc(-c4ccccc4-c4nn[n-]n4)cc3)c2c1.[K+]", "IC50 (nM)": 3.4}
{"COMPOUND": "CCCCc1nc2ccc(-c3nnc(O)cc3C)cc2n1Cc1ccc(-c2ccccc2-c2nn[nH]n2)cc1", "IC50 (nM)": 4.4}
{"COMPOUND": "CCCc1nc2ccc(C3=NN(CC(=O)N(C)C)C(=O)CC3)cc2n1Cc1ccc(-c2ccccc2-c2nn[n-]n2)cc1.[K+]", "IC50 (nM)": 1.7}
{"COMPOUND": "COC(=O)CN1N=C(c2ccc3nc(C4CC4)n(Cc4ccc(-c5ccccc5-c5nn[nH]n5)cc4)c3c2)C(C)CC1=O (stereo not given)", "IC50 (nM)": 3.2}
{"COMPOUND": "CC1CC(=O)NN=C1c1ccc2nc(C3CC3)n(Cc3ccc(-c4ccccc4-c4nn[nH]n4)cc3)c2c1 (stereo not given)", "IC50 (nM)": 1.8}

Now look at this entry.
Fill in: IC50 of CCCCc1nc2ccc(C3=NNC(=O)CC3)cc2n1Cc1ccc(-c2ccccc2-c2nn[nH]n2)cc1 is ___ 5
